Task for the reader: assign each of the following compounds its reported pEC50.
Tested on: A549
Assay: Antiproliferative activity against human A549 cells after 72 hrs by MTT assay
Format: functional, cell-based
Settings: A549, 72 h
Give bare numbers, as −log10 of the molar value.

O=C(/C=C/c1ccc(O)c(O)c1)OCc1ccccc1 [BENZYL CAFFEATE] = 4.46
O=c1c(O)c(-c2ccccc2)oc2cc(O)cc(O)c12 [GALANGIN] = 4.03

Parameter requested: pEC50. Apply to each item below.
1. O=C1C[C@@H](c2ccccc2)Oc2cc(O)cc(O)c21 [PINOCEMBRIN]
2. O=c1cc(-c2ccccc2)oc2cc(O)cc(O)c12 [CHRYSIN]

Reply |
3.64
3.63

Parameter requested: pEC50. Apply to each item below.
1. O=c1[nH]cc(F)c(=O)[nH]1 [FLUOROURACIL]
2. COc1cc(/C=C/C(=O)OCc2ccccc2)ccc1O [BENZYL FERULATE]

Reply |
[5.44, 4.03]
